From: ChEMBL document CHEMBL5247664

# System: Cryptosporidium parvum
# METHOD_NOTES: Antiparasitic activity against Cryptosporidium parvum infected in human HCT-8 cells assessed as parasitic growth inhibition measured for 48 hrs by fluorescence based microscopic analysis
# Format: functional, organism-based
# APPLIED_CONDITIONS: HCT-8, time 48 hrs
OUTCOME_MEASURE: EC90 (nM)
Write the number in nM without appending the unit.

SMI | EC90 [nM]
CCC[C@H](CC(=O)N1CCCC1)C(=O)N[C@H]1N=C(c2ccccc2)c2ccccc2N(C)C1=O | 230
CCCNC(=O)C[C@@H](CCC(F)(F)F)C(=O)N[C@H]1N=C(c2ccccc2)c2ccc(OC)cc2N(C)C1=O | 150
CN1C(=O)[C@H](NC(=O)[C@H](CCC(F)(F)F)CC(=O)N2CCCCC2)N=C(c2ccccc2)c2ccc(OC3CCC3)cc21 | 11100
CN1C(=O)[C@@H](NC(=O)[C@H](CCC(F)(F)F)CC(=O)OC(C)(C)C)N=C(c2ccccc2)c2ccccc21 | 1120

Shifting focus to the compound that follows.
Lookup: Form field: reported EC90 of "COc1ccc2c(c1)N(C)C(=O)[C@@H](NC(=O)[C@H](CCC(F)(F)F)CC(=O)N1CCCCC1)N=C2c1ccccc1"
Found: 66
